target: human TLR8 (Homo sapiens, UniProt Q9NR97); test: TLR8 inhibition reporter assay (HEK-Blue cells, SEAP reporter, R848 stimulation); settings: HEK-Blue cells overexpressing human TLR8, SEAP reporter, R848 15.9 μM
Sequence (Q9NR97 27-1041): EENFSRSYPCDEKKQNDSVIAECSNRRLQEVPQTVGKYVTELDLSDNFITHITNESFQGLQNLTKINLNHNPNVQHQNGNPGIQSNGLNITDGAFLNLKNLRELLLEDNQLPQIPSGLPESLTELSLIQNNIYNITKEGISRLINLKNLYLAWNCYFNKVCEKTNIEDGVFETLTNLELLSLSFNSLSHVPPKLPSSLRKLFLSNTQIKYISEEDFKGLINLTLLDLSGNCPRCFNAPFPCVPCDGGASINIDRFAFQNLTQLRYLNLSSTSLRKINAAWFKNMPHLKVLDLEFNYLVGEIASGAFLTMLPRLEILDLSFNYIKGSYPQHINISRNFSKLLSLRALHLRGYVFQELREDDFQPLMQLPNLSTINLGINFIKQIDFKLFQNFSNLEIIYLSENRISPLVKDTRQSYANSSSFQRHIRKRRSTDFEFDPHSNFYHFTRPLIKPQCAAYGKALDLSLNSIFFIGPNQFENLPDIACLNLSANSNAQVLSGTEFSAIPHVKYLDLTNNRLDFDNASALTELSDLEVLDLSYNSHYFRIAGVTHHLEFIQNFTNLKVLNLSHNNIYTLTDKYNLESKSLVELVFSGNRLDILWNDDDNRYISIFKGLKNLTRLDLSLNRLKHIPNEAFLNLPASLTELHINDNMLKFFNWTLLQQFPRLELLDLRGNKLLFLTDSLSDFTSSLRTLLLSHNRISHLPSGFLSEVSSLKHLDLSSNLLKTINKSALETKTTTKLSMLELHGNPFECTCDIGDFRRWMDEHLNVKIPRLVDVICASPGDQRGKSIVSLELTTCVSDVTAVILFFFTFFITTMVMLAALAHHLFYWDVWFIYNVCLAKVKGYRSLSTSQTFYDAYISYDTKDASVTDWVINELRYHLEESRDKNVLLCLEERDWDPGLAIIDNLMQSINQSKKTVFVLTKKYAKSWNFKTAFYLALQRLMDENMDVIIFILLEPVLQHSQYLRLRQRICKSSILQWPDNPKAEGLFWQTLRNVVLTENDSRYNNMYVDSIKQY
pIC50: −log10 of the molar value.
Please note: yes applies when pIC50 is 8 or greater, and no applies otherwise.

> print(dat)
                                   compound                                    target  label
1  Cc1cc(-c2[nH]c3ccc(C4CCCN(C(=O)C5C(C)(C)C5(C)C)C4)cc3c2C(C)C)cc(C)n1 (stereo not shown) [Example 198]  human TLR8 (Homo sapiens, UniProt Q9NR97)     no
2  Cc1cc(-c2[nH]c3ccc(C4CCCNC4)cc3c2C(C)C)ccn1 (stereo not shown) [Example 184]  human TLR8 (Homo sapiens, UniProt Q9NR97)    yes
3  Cc1c(-c2[nH]c3ccc(C4CCC(N(C)C5COC5)CC4)cc3c2C(C)C)cn2cnnc2c1C (stereo not shown) [Example 526]  human TLR8 (Homo sapiens, UniProt Q9NR97)     no
4  Cc1cc(-c2[nH]c3ccc(C4CNCCO4)cc3c2C(C)C)cn2ncnc12 (stereo not shown) [Example 283]  human TLR8 (Homo sapiens, UniProt Q9NR97)    yes
5  Cc1c(-c2[nH]c3ccc(C4CN(C(=O)CN(C)C)CCO4)cc3c2C(C)C)cn2ncnc2c1C (stereo not shown) [Example 330]  human TLR8 (Homo sapiens, UniProt Q9NR97)    yes
6  Cc1c(-c2[nH]c3ccc(C4CCCNC4)cc3c2C(C)C)ccc2ncnn12 (stereo not shown) [Example 188]  human TLR8 (Homo sapiens, UniProt Q9NR97)     no

Is the recorded value of pIC50 equal to or greater than 8 for this compound? Cc1c(-c2[nH]c3ccc(C4CCC(N(C)C)CC4)cc3c2C(C)C)cn2cnnc2c1C (stereo not shown) [Example 527] yes

Hi team, for Cc1c(-c2[nH]c3ccc(C4CC(N(C)CCS(C)(=O)=O)C4)cc3c2C(C)C)cn2ncnc2c1C (stereo not shown) [Example 586] , is the recorded pIC50 at or above 8? yes

Tell me whether pIC50 is at least 8 here: Cc1cc(-c2[nH]c3ccc(CC4CCCN4Cc4ccccc4)cc3c2C(C)C)cn2ncnc12 (single isomer, unassigned) [Example 397] yes

Assess whether reported pIC50 for CC(C)c1c(-c2ccnc3[nH]ncc23)[nH]c2ccc(C3CCC(Oc4ccncc4)CC3)cc12 (stereo not shown) [Example 504] sits at 8 or higher. no

Identify whether the reported pIC50 of the following compound is 8 or greater: Cc1c(-c2[nH]c3ccc(CC4CN(C(C)C)C4)cc3c2C(C)C)cn2ncnc2c1C [Example 435] yes
